Target: T1, LHRH binding sites on EFO-27 human ovarian cancer cells (human)
T1 chain: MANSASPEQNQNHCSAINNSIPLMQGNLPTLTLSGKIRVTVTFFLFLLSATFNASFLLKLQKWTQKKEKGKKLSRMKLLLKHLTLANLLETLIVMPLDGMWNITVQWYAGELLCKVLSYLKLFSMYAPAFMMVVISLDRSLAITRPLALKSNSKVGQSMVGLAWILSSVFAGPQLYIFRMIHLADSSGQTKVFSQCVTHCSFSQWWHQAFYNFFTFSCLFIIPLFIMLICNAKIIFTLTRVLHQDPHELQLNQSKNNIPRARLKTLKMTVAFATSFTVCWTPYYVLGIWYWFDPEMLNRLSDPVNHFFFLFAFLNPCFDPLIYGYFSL
Assay: competition with [125I-Tyr8]BRU-2477 on EFO-27 cells
Non-standard residues stand in square brackets, D forms with d. DO3A10CM = not defined here; azaGly = NNC(=O)O; Sar = CNCC(=O)O
RECORDED_ENDPOINT: pEC50
Friendly reminder that pEC50 comes from taking -log10 of the concentration in mol/L.

Incoming: Quick one: pEC50 for DO3A10CM-[Sar]HWSH[dR]WWP[azaGly]-NH2 (reading uncertain, AA8 Trp) [BRU-2724] ?
Outgoing: 5.57
